Below is a list of entries, each paired with its recorded weed control effect, Digitaria sanguinalis (level) value.
test system: Monocotyledonous and dicotyledonous weed; assay: Post-emergence test experiment, weed control effect (Table 2); type: in vivo; design: key: Level 10: completely dead; Level 9: above 90% growth inhibition rate; Level 8: above 80% growth inhibition rate; Level 7: above 70% growth inhibition rate; Level 6: above 60% growth inhibition rate; Level 5: above 50% growth inhibition rate; Level 4: above 30% growth inhibition rate; Level 3: above 20% growth inhibition rate; Level 2: above 10% growth inhibition rate; Level 1: above 1-10% growth inhibition rate; Level 0: no effect; conditions: 30 g/ha, 3 weeks after spraying, greenhouse

Cc1nn(C)cc1C(=O)Oc1c(C(=O)c2ccc(S(C)(=O)=O)c(COCC(F)F)c2Cl)cnn1C [Compound 40]; 10

Could you now look at the following compound, please?
q: Data request, read-out weed control effect, Digitaria sanguinalis (level), for COCc1c(S(C)(=O)=O)ccc(C(=O)c2c(C3CC3)nn(C)c2OC(=O)c2cn(C)nc2C)c1Cl [Compound 51]
a: 10

====

test system: main crop (wheat, corn, rice, soybean, cotton, oilseed, millet and sorghum); assay: Post-emergence test experiment, main crops (Table 2); type: in vivo; design: key: Level 10: completely dead; Level 9: above 90% growth inhibition rate; Level 8: above 80% growth inhibition rate; Level 7: above 70% growth inhibition rate; Level 6: above 60% growth inhibition rate; Level 5: above 50% growth inhibition rate; Level 4: above 30% growth inhibition rate; Level 3: above 20% growth inhibition rate; Level 2: above 10% growth inhibition rate; Level 1: above 1-10% growth inhibition rate; Level 0: no effect; settings: 60 g/ha, 3 weeks after spraying, greenhouse
METRIC NAME: effect on crop, corn (level)
Answer as a number with no unit attached.

CCc1nn(CC)c(OC(=O)c2cn(C)nc2C)c1C(=O)c1ccc(S(C)(=O)=O)c(COCC(F)F)c1Cl [Compound 94]; 0
CCOCc1c(S(C)(=O)=O)ccc(C(=O)c2c(C3CC3)nn(C(C)C)c2OC(=O)c2cn(C)nc2C)c1Cl [Compound 96]; 0
CCOCc1c(S(C)(=O)=O)ccc(C(=O)c2c(CC)nn(CC)c2OC(=O)c2nn(C)cc2Cl)c1Cl [Compound 104]; 0
COCC(C)OCc1c(S(C)(=O)=O)ccc(C(=O)c2c(C)nn(C)c2OC(=O)c2cn(C)nc2C)c1Cl (stereo not shown) [Compound 36]; 0
CCCCOCc1c(S(C)(=O)=O)ccc(C(=O)c2c(C)nn(C)c2OC(=O)c2cn(C)nc2C)c1Cl [Compound 34]; 0

q: State the recorded effect on crop, corn (level) for this entry: C#CCOCc1c(S(C)(=O)=O)ccc(C(=O)c2c(CC)nn(CC)c2OC(=O)c2c(Cl)c(CC)nn2C)c1Cl [Compound 107]
a: 0

q: State the recorded effect on crop, corn (level) for this entry: Cc1nn(C)cc1C(=O)Oc1c(C(=O)c2ccc(S(C)(=O)=O)c(Cn3cccn3)c2Cl)c(C2CC2)nn1C [Compound 13]
a: 0

====

In this section we review reported effect on crop, wheat (level) values for a set of compounds.
Test system: main crop (wheat, corn, rice, soybean, cotton, oilseed, millet and sorghum)
Assay: Post-emergence test experiment, main crops (Table 2)
Assay type: in vivo
Set-up: key: Level 10: completely dead; Level 9: above 90% growth inhibition rate; Level 8: above 80% growth inhibition rate; Level 7: above 70% growth inhibition rate; Level 6: above 60% growth inhibition rate; Level 5: above 50% growth inhibition rate; Level 4: above 30% growth inhibition rate; Level 3: above 20% growth inhibition rate; Level 2: above 10% growth inhibition rate; Level 1: above 1-10% growth inhibition rate; Level 0: no effect
Details: 60 g/ha, 3 weeks after spraying, greenhouse
Method: Post-emergence test experiment: Monocotyledonous and dicotyledonous weed seeds and main crop seeds (i.e. wheat, corn, rice, soybean, cotton, oilseed, millet and sorghum.) were put into a plastic pot loaded with soil. Then covered with 0.5-2 cm soil, the seeds were allowed to grow in good greenhouse environment. The test plants were treated at 2-3 leaf stage 2-3 weeks after sowing. […]
Keep the answer to the number alone.

Study these solved cases before continuing.
CCOCc1c(S(C)(=O)=O)ccc(C(=O)c2c(CC)nn(CC)c2OC(=O)c2nn(C)cc2Cl)c1Cl [Compound 104]; 0
CCc1nn(C)c(C(=O)Oc2c(C(=O)c3ccc(S(C)(=O)=O)c(Cn4cccn4)c3Cl)c(C)nn2C(C)C)c1Cl [Compound 106]; 0
CC=CCOCc1c(S(C)(=O)=O)ccc(C(=O)c2c(C)nn(C)c2OC(=O)c2cn(C)nc2C)c1Cl [Compound 38]; 0

Now look at this entry.
q: Need effect on crop, wheat (level) of CCCCOCc1c(S(C)(=O)=O)ccc(C(=O)c2c(C)nn(C)c2OC(=O)c2cn(C)nc2C)c1Cl [Compound 34] , thanks.
a: 0

====

system: Monocotyledonous and dicotyledonous weed; experiment: Post-emergence test experiment, weed control effect (Table 2); assay type: in vivo; set-up: key: Level 10: completely dead; Level 9: above 90% growth inhibition rate; Level 8: above 80% growth inhibition rate; Level 7: above 70% growth inhibition rate; Level 6: above 60% growth inhibition rate; Level 5: above 50% growth inhibition rate; Level 4: above 30% growth inhibition rate; Level 3: above 20% growth inhibition rate; Level 2: above 10% growth inhibition rate; Level 1: above 1-10% growth inhibition rate; Level 0: no effect; settings: 30 g/ha, 3 weeks after spraying, greenhouse
METRIC NAME: weed control effect, Setaria viridis (level)
Please give only the number in your answer, with no unit.

Study these solved cases before continuing.
COCc1c(S(C)(=O)=O)ccc(C(=O)c2c(C)nn(C)c2OC(=O)c2cn(C)nc2C)c1Cl [Compound 26]; 10
Cc1nn(C)c(OC(=O)c2cnn(C)c2)c1C(=O)c1ccc(S(C)(=O)=O)c(COCC(F)(F)F)c1Cl [Compound 63]; 10
CCn1nc(C2CC2)c(C(=O)c2ccc(S(C)(=O)=O)c(COCC(F)F)c2Cl)c1OC(=O)c1cn(C)nc1C [Compound 90]; 10

q: Fill in the blank: the reported weed control effect, Setaria viridis (level) of Cc1nn(C)cc1C(=O)Oc1c(C(=O)c2ccc(S(C)(=O)=O)c(COCC(F)(F)F)c2Cl)c(C)nn1C(C)C [Compound 98] is ____.
a: 10

====

Recorded effect on crop, wheat (level) by entry
tested on: main crop (wheat, corn, rice, soybean, cotton, oilseed, millet and sorghum); test: Post-emergence test experiment, main crops (Table 2); type: in vivo; set-up: key: Level 10: completely dead; Level 9: above 90% growth inhibition rate; Level 8: above 80% growth inhibition rate; Level 7: above 70% growth inhibition rate; Level 6: above 60% growth inhibition rate; Level 5: above 50% growth inhibition rate; Level 4: above 30% growth inhibition rate; Level 3: above 20% growth inhibition rate; Level 2: above 10% growth inhibition rate; Level 1: above 1-10% growth inhibition rate; Level 0: no effect; conditions: 60 g/ha, 3 weeks after spraying, greenhouse
Just the number, please, no unit after it.

CCOCCOCc1c(S(C)(=O)=O)ccc(C(=O)c2c(C)nn(C)c2OC(=O)c2cn(C)nc2C)c1Cl [Compound 39]; 0
COCCCOCc1c(S(C)(=O)=O)ccc(C(=O)c2c(C)nn(C)c2OC(=O)c2cn(C)nc2C)c1Cl [Compound 37]; 0

Let's switch to this compound now.
q: Any idea what its effect on crop, wheat (level) is? The compound is CCc1nn(C)c(C(=O)Oc2c(C(=O)c3ccc(S(C)(=O)=O)c(COCC(F)(F)F)c3Cl)cnn2C)c1Cl [Compound 105]
a: 0

====

Each item that follows carries a reported weed control effect, Digitaria sanguinalis (level).
tested on: Monocotyledonous and dicotyledonous weed; assay: Post-emergence test experiment, weed control effect (Table 2); assay type: in vivo; parameters: key: Level 10: completely dead; Level 9: above 90% growth inhibition rate; Level 8: above 80% growth inhibition rate; Level 7: above 70% growth inhibition rate; Level 6: above 60% growth inhibition rate; Level 5: above 50% growth inhibition rate; Level 4: above 30% growth inhibition rate; Level 3: above 20% growth inhibition rate; Level 2: above 10% growth inhibition rate; Level 1: above 1-10% growth inhibition rate; Level 0: no effect; conditions: 30 g/ha, 3 weeks after spraying, greenhouse

CCOCc1c(S(C)(=O)=O)ccc(C(=O)c2c(C3CC3)nn(C)c2OC(=O)c2cnn(C)c2)c1Cl; 10

Then there is this compound:
q: Please report the recorded weed control effect, Digitaria sanguinalis (level) for "CCOc1c(C(=O)Oc2c(C(=O)c3ccc(S(C)(=O)=O)c(COCC(F)(F)F)c3Cl)c(C)nn2C)cnn1C" .
a: 10

====

test system: Monocotyledonous and dicotyledonous weed; experiment: Post-emergence test experiment, weed control effect (Table 2); type: in vivo; set-up: key: Level 10: completely dead; Level 9: above 90% growth inhibition rate; Level 8: above 80% growth inhibition rate; Level 7: above 70% growth inhibition rate; Level 6: above 60% growth inhibition rate; Level 5: above 50% growth inhibition rate; Level 4: above 30% growth inhibition rate; Level 3: above 20% growth inhibition rate; Level 2: above 10% growth inhibition rate; Level 1: above 1-10% growth inhibition rate; Level 0: no effect; conditions: 30 g/ha, 3 weeks after spraying, greenhouse
// reported weed control effect, Setaria viridis (level) per item

CCOc1c(C(=O)Oc2c(C(=O)c3ccc(S(C)(=O)=O)c(COC)c3Cl)c(C)nn2CC)cnn1C; 10

From here, focus on the item given below.
q: I am curious: what weed control effect, Setaria viridis (level) value has been reported for "CCOCc1c(S(C)(=O)=O)ccc(C(=O)c2c(C3CC3)nn(C)c2OC(=O)c2cnn(C)c2)c1Cl" ?
a: 10
